# Tested on: Botrytis cinerea
# Method notes: Antifungal activity against Botryotinia fuckeliana 2100 assessed as inhibition of radial growth at 150 ug/mL at 25 degC measured after 5 days
# Format: functional
# Experimental conditions: Botrytis cinerea, 2100, 120 h; read-out: GI
Endpoint name: inhibition of growth at 150 µg/mL
Write the figure, then the unit, nothing else.

Worked cases, answers included:
>>> df
                       molecule                      endpoint_name  result
0       CC[C@@H](O)c1cccc(Cl)c1  inhibition of growth at 150 µg/mL     86%
1  CCC(O)c1cccc(Cl)c1 (racemic)  inhibition of growth at 150 µg/mL     83%

// batch mode: one inhibition of growth at 150 µg/mL value per listed entry
1. O[C@@H](c1ccccc1)c1ccc(Cl)cc1
2. CCC(=O)c1ccc(Cl)cc1
3. CC[C@@H](OC(C)=O)c1cccc(Cl)c1
4. O=C(Cc1ccccc1)c1ccc(Cl)cc1
5. Clc1ccc(C2OC2c2ccccc2)cc1 (stereo not drawn)
6. O[C@H](c1ccc(Cl)cc1)C1CC1

100%
91%
30%
38%
28%
97%

----------
# Test system: Botrytis cinerea
# Method notes: Antifungal activity against Botryotinia fuckeliana 2100 assessed as inhibition of radial growth at 150 ug/mL at 25 degC measured after 5 days
# Format: functional
# Experimental conditions: Botrytis cinerea, 2100, 120 h; read-out: GI
Endpoint name: inhibition of growth at 150 µg/mL (%)
Numbers only, in %.

Reference set (3 entries):
In [3]: df
Out[3]:
                       molecule  quantity_unit  numeric_readout
0    O[C@@H](c1ccc(Cl)cc1)C1CC1              %              100
1  CCC(O)c1ccc(Cl)cc1 (racemic)              %               95
2        CC[C@H](O)c1cccc(Cl)c1              %               82

Would you mind listing inhibition of growth at 150 µg/mL for each of the following molecules?
1. OC(c1ccccc1)c1ccc(Cl)cc1 (racemic)
2. CC[C@H](O)c1ccc(Cl)cc1
3. CC[C@@H](OC(C)=O)c1ccc(Cl)cc1
4. O[C@H](c1ccccc1)c1ccc(Cl)cc1
5. O[C@@H](c1ccccc1)[C@@H](O)c1ccc(Cl)cc1
6. O[C@H](c1ccccc1)[C@H](O)c1ccc(Cl)cc1
7. O=C(c1ccc(Cl)cc1)C1CC1

[100, 92, 44, 100, 68, 62, 100]

Can you give me inhibition of growth at 150 µg/mL for all of these, one by one?
1. OC(c1ccc(Cl)cc1)C1CC1 (racemic)
2. CCC(=O)c1cccc(Cl)c1

1: 100; 2: 91

Provide the documented inhibition of growth at 150 µg/mL with Botrytis cinerea as the system for `CC[C@@H](O)c1ccc(Cl)cc1`
98

----------
# System: Colletotrichum gloeosporioides
# Method notes: Antifungal activity against Colletotrichum gloeosporioides 20122-CECT assessed as inhibition of radial growth at 100 ug/mL at 25 degC measured after 5 days
# Assay type: functional
# Experimental conditions: 120 h, read-out: GI
Endpoint name: inhibition of growth at 100 µg/mL (%)
Answers are plain numbers, in %.

                               compound  numeric_readout
0         O[C@@H](c1ccccc1)c1ccc(Cl)cc1               85
1             Clc1ccc(/C=C/c2ccccc2)cc1                0
2                CC[C@H](O)c1cccc(Cl)c1               37
3         CC[C@@H](OC(C)=O)c1cccc(Cl)c1                0
4                   CCC(=O)c1ccc(Cl)cc1               29
5  O[C@H](c1ccccc1)[C@H](O)c1ccc(Cl)cc1               42
6          O[C@H](c1ccccc1)c1ccc(Cl)cc1               94
7         CC[C@@H](OC(C)=O)c1ccc(Cl)cc1                0

Fill in inhibition of growth at 100 µg/mL for each of the 5 compounds listed.
1. O=C(c1ccc(Cl)cc1)C1CC1 [(4-CHLOROPHENYL)(CYCLOPROPYL)METHANONE]
2. OC(c1ccccc1)c1ccc(Cl)cc1 (racemic)
3. CC[C@H](O)c1ccc(Cl)cc1
4. CC[C@@H](O)c1ccc(Cl)cc1
5. OC(c1ccc(Cl)cc1)C1CC1 (racemic)

63
87
29
39
53

----------
# Test system: Colletotrichum gloeosporioides
# Method notes: Antifungal activity against Colletotrichum gloeosporioides 20122-CECT assessed as inhibition of radial growth at 100 ug/mL at 25 degC measured after 5 days
# Format: functional
# Experimental conditions: 120 h, read-out: GI
Endpoint name: inhibition of growth at 100 µg/mL (%)
One number for each entry, in %.

Examples from the recorded data:
>>> df
                                 compound  quantity_unit  numeric_readout
0                     CCC(=O)c1cccc(Cl)c1              %               28
1                 CC[C@@H](O)c1cccc(Cl)c1              %               60
2              O[C@@H](c1ccc(Cl)cc1)C1CC1              %               40
3  O[C@@H](c1ccccc1)[C@@H](O)c1ccc(Cl)cc1              %               52
4            CCC(O)c1ccc(Cl)cc1 (racemic)              %               41
5            CCC(O)c1cccc(Cl)c1 (racemic)              %               60

Given the compound Clc1ccc(C2OC2c2ccccc2)cc1 (configuration not stated) , what is its reported inhibition of growth at 100 µg/mL?
0

----------
Please go through the items and note down their inhibition of growth at 50 µg/mL.
# Test system: Colletotrichum gloeosporioides
# Method notes: Antifungal activity against Colletotrichum gloeosporioides 20122-CECT assessed as inhibition of radial growth at 50 ug/mL at 25 degC measured after 5 days
# Assay type: functional
# Experimental conditions: 120 h, read-out: GI
Numbers only, in %.

In [3]: df
Out[3]:
                                   molecule                     endpoint_name  numeric_readout
0  Clc1ccc(C2OC2c2ccccc2)cc1 (configuration not stated)  inhibition of growth at 50 µg/mL                0
1           OC(c1ccc(Cl)cc1)C1CC1 (racemic)  inhibition of growth at 50 µg/mL               31
2                O[C@@H](c1ccc(Cl)cc1)C1CC1  inhibition of growth at 50 µg/mL               25
3              CCC(O)c1cccc(Cl)c1 (racemic)  inhibition of growth at 50 µg/mL               31
4                   CC[C@@H](O)c1ccc(Cl)cc1  inhibition of growth at 50 µg/mL               28

For each entry beneath this line, provide reported inhibition of growth at 50 µg/mL.
1. CCC(=O)c1ccc(Cl)cc1
2. O[C@H](c1ccccc1)[C@H](O)c1ccc(Cl)cc1

1: 28; 2: 22
